- testDescription: HILIC, Merck SeQuant ZIC-HILIC, 100 × 2.1 mm, 3.5 µm, 25 °C, 0.3 mL/min, estimated dead time 0.73 min; A: water + 0.1% formic acid, pH 3; B: acetonitrile + 0.1% formic acid, pH 3; gradient (min/%B) 0/95 1.5/95 13.5/40 15.5/40 29.7/25 33.5/25 34.5/95 41.5/95
- assaySetup: stereoisomer not certain

molecule | LC retention time
CC[C@H](C)[C@H](N)C(=O)O | 6.76 min
NC(CCS)C(=O)O (stereo not given) | 7.41 min
CC(=O)NCCc1c[nH]c2ccc(O)cc12 [N-acetyl-5-hydroxytryptamine] | 2.03 min
CC(=O)N[C@@H](CC(=O)O)C(=O)O | 4.31 min
O=c1[nH]cnc2c1ncn2C1CC(O)C(CO)O1 (stereo not given) | 4.69 min
Cn1c(=O)c2c([nH]c(=O)n2C)n(C)c1=O | 1.87 min
CS(=O)(=O)CCC(N)C(=O)O (stereo not given) | 7.89 min
C[N+](C)(C)CCOP(=O)(O)OP(=O)([O-])OCC1OC(n2ccc(N)nc2=O)C(O)C1O (stereo not given) | 10.6 min
CC(=O)NC(Cc1ccccc1)C(=O)O (stereo not given) | 1.58 min
NCCS(=O)(=O)O | 7.44 min

Each recorded value in this set is attributed to the RepoRT retention time repository (doi:10.1021/acs.analchem.7b00925).
